All figures here come from patent US8178506B2.

Tested on: IGFBP-1
assay.text: IGFBP-1 mRNA expression in HepG2 cells
Type: cell-based, human
run.conditions: Experiment 3, basal (no insulin), HepG2 cells, 48 hours post-transfection
In the oligonucleotide strings, read from the 5' end, every base follows the letter of its sugar. An asterisk marks phosphorothioate; unmarked linkages are phosphodiester. Other units and linkages are bracketed, terminal groups are in braces. A string of capitals states the bases alone. e = 2'-O-(2-methoxyethyl) (MOE); [5mC] = 5-methylcytosine; d = 2'-deoxy (DNA)
measured.parameter: IGFBP-1 (% UTC)
Give just the number in % UTC; leave the unit off.

As a guide, the following entries are already answered.
328779 (antisense eT*eG*eT*eT*eT*dG*dT*d[5mC]*dT*d[5mC]*d[5mC]*dA*dA*dG*dA*eA*eA*e[5mC]*eG*eT) [compound 328779] | 135
328761 (antisense eG*e[5mC]*eA*eG*eG*d[5mC]*dT*dA*dA*dA*dA*dG*dA*dA*dA*eT*eA*eA*eG*e[5mC]) [compound 328761] | 118

Challenge: Which value of IGFBP-1 (% UTC) has been reported for 328685 (e[5mC]*eG*eG*e[5mC]*e[5mC]*dG*dG*dA*dG*d[5mC]*d[5mC]*dA*dT*dA*dG*eA*e[5mC]*eT*e[5mC]*eG; antisense) [compound 328685] in the records?
Response given: 157
